# AVG A450 nm per record follows
# test-target: T1, human c-Met ECD-Fc-Flis (human)
# T1 construct: c-Met ECD fused to Fc with flag- and His-tag at the C-terminus; also called human c-Met extracellular domain (ECD)-Fc-Flis fusion; human c-Met-Flis-Fc ECD
# T1 sequence (chain, as listed by the source): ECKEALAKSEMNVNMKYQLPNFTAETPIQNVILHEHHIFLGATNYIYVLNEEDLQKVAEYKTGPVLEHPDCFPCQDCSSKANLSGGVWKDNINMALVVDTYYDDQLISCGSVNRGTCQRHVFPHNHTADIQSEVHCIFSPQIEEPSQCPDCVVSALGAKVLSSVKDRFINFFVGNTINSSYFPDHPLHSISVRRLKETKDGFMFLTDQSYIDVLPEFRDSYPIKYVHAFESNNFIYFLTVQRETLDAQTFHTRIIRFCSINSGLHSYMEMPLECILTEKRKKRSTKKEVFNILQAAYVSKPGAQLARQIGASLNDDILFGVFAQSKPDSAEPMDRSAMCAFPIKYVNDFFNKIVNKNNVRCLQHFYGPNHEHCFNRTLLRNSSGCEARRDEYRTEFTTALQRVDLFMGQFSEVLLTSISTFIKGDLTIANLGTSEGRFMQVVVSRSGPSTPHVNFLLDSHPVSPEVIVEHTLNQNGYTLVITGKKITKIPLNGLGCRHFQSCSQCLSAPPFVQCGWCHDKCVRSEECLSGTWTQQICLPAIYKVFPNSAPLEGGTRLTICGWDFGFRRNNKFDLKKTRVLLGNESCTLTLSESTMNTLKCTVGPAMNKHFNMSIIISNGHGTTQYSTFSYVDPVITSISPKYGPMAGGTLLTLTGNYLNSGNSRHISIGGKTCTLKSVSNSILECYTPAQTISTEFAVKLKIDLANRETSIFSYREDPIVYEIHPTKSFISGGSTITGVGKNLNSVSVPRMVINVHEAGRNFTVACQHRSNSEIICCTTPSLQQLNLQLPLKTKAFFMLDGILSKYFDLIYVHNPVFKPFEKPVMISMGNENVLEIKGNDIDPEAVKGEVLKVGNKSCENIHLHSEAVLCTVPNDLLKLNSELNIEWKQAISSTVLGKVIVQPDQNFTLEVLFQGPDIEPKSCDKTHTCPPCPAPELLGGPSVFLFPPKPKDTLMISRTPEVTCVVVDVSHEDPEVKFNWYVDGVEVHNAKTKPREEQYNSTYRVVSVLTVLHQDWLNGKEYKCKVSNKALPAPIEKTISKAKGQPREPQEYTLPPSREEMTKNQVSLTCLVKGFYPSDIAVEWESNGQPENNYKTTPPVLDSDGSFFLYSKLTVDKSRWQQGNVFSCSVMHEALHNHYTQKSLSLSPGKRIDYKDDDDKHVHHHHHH
# assay: HGF-blocking ELISA: HGF signal on coated c-Met ECD-Fc-Flis; Ab 7812.50 ng/mL
# Excerpt: […]

binder	AVG A450 nm
C8-H241 (antibody, human IgG2, kappa, V domains shown, Named IgG4 kappa; also called Mab C8-H241) VH: QVQLVQSGAEVKKPGASVKVSCKASGYTFTDYYMHWVRQAPGQGLEWMGRVNPNRRGTTYNQKFEGRVTMTTDTSTSTAYMELRSLRSDDTAVYYCARANWLDYWGQGTTVTVSS VL: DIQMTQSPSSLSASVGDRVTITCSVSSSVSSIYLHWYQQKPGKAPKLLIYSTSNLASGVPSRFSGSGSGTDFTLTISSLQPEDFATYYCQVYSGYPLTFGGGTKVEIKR	0.7 A450 nm
D11-S17Y (antibody, human IgG2, kappa, V domains shown, Human engineered IgG2 kappa c-Met antibody; also called D11-S17Y IgG2) VH: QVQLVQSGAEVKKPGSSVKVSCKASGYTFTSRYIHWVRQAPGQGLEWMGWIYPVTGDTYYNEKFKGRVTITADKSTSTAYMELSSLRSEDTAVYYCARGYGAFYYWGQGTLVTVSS VL: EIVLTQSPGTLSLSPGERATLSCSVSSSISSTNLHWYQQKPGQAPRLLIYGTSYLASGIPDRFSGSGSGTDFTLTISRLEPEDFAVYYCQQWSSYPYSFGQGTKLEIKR	1.12 A450 nm
D11-C27G3 (antibody, human IgG2, kappa, V domains shown, Human engineered IgG2 kappa c-Met antibody; also called D11-27G3; D11-C27G3 IgG2) VH: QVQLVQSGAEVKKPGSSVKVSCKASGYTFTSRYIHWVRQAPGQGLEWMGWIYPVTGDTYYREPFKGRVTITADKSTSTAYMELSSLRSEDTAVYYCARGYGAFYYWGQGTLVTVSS VL: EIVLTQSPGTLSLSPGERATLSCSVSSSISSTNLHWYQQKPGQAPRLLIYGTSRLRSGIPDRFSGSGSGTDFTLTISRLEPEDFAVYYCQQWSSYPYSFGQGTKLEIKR	0.91 A450 nm

src = patent US20100129369A1
